# Test system: protein sample
# MEASUREMENT DESCRIPTION: Protein quality control screen: melting point temperature vs pH and NaCl concentration
# Assay type: physicochemical
# EXPERIMENTAL CONTEXT: pH 5; NaCl Concentration 1

- COMPOUND: "[Cl-].[Na+] [sodium chloride]"
  protein melting point temperature / °C: 76.5

====

# Tested on: protein sample
# MEASUREMENT DESCRIPTION: Protein quality control screen: melting point temperature vs pH and NaCl concentration
# Format: physicochemical
# EXPERIMENTAL CONTEXT: pH 5.5; NaCl Concentration 2
OBSERVATION TYPE: protein melting point temperature (°C)

- COMPOUND: "[Cl-].[Na+] [sodium chloride]"
  OBSERVED MEASUREMENT: 77.5

====

# Tested on: protein sample
# MEASUREMENT DESCRIPTION: Protein quality control screen: melting point temperature vs pH and NaCl concentration
# Format: physicochemical
# EXPERIMENTAL CONTEXT: pH 9; NaCl Concentration 1

- COMPOUND: "[Cl-].[Na+] [sodium chloride]"
  protein melting point temperature / °C: 75

====

# Test system: protein sample
# MEASUREMENT DESCRIPTION: Protein quality control screen: melting point temperature vs pH and NaCl concentration
# Format: physicochemical
# EXPERIMENTAL CONTEXT: pH 5.5; NaCl Concentration 1.25

- MOLECULE: "[Cl-].[Na+] [sodium chloride]"
  protein melting point temperature / °C: 77

====

# Test system: protein sample
# MEASUREMENT DESCRIPTION: Protein quality control screen: melting point temperature vs pH and NaCl concentration
# Format: physicochemical
# EXPERIMENTAL CONTEXT: pH 8; NaCl Concentration 0.125

- COMPOUND: "[Cl-].[Na+] [sodium chloride]"
  protein melting point temperature (°C): 75.5

====

# Test system: protein sample
# MEASUREMENT DESCRIPTION: Protein quality control screen: melting point temperature vs pH and NaCl concentration
# Type: physicochemical
# EXPERIMENTAL CONTEXT: pH 6.5; NaCl Concentration 1.75

- MOLECULE: "[Cl-].[Na+] [sodium chloride]"
  TEST TARGET: "protein sample"
  protein melting point temperature: "78 °C"

====

# Tested on: protein sample
# MEASUREMENT DESCRIPTION: Protein quality control screen: melting point temperature vs pH and NaCl concentration
# Assay type: physicochemical
# EXPERIMENTAL CONTEXT: pH 6; NaCl Concentration 0.75

- COMPOUND: "[Cl-].[Na+] [sodium chloride]"
  protein melting point temperature / °C: 76.5

====

# Tested on: protein sample
# MEASUREMENT DESCRIPTION: Protein quality control screen: melting point temperature vs pH and NaCl concentration
# Assay type: physicochemical
# EXPERIMENTAL CONTEXT: pH 6.5; NaCl Concentration 1.25

- COMPOUND: "[Cl-].[Na+] [sodium chloride]"
  UNITS TEXT: "°C"
  protein melting point temperature: 77.5

====

# Test system: protein sample
# MEASUREMENT DESCRIPTION: Protein quality control screen: melting point temperature vs pH and NaCl concentration
# Type: physicochemical
# EXPERIMENTAL CONTEXT: pH 6.5; NaCl Concentration 0.75
OBSERVATION TYPE: protein melting point temperature (°C)

- COMPOUND: "[Cl-].[Na+] [sodium chloride]"
  OBSERVED MEASUREMENT: 77
